Source: patent US10123978B2

Tested on: Trichophyton rubrum (T. rubrum) ATCC10218
Experiment: Antifungal activity test against dermatophytes (MIC)
Format: cell-based
Settings: 80% growth inhibiting concentration, RPMI1640/MOPS, 28° C., 4 days, WST8
Method: Measurement of the anti-trichophyton activity of the compound of the formula (I) comprised in the patch of the present invention was carried out by the following method. The compound to be evaluated was used by dissolving in dimethyl sulfoxide (DMSO). […] Thereafter, 5 μl of Cell Counting Kit 8 (WST8) was added thereto, and absorbances at 450 nm and 595 nm were measured to use these as background values. […]
Measured metric: MIC (T. rubrum)

{"Line notation": "Cc1cc(C)n(-c2ccc([N+](=O)[O-])cc2O)n1", "Recorded value": "C (16-32 μg/ml)"}
{"Line notation": "Cc1cc(C)n(-c2ccc(F)cc2O)n1", "Recorded value": "B (4-16 μg/ml)"}
{"Line notation": "Cc1nn(-c2cc(O)ccc2O)c(C)c1Cl", "Recorded value": "C (16-32 μg/ml)"}
{"Line notation": "Cc1nn(-c2ccc(Cl)cc2O)c(C)c1C", "Recorded value": "A (≤2 μg/ml)"}
{"Line notation": "COC(=O)CCc1c(C)nn(-c2ccccc2O)c1C", "Recorded value": "D (>32-64 μg/ml)"}
{"Line notation": "Cc1nn(-c2ccc(O)cc2O)c(C)c1Cl", "Recorded value": "A (≤2 μg/ml)"}
{"Line notation": "Cc1cc(C)n(-c2ccc(N)cc2O)n1", "Recorded value": "B (4-16 μg/ml)"}
{"Line notation": "CCCCc1c(C)nn(-c2ccccc2O)c1C", "Recorded value": "C (16-32 μg/ml)"}
{"Line notation": "Cc1nn(-c2ccc(Br)cc2O)c(C)c1C", "Recorded value": "A (≤2 μg/ml)"}
{"Line notation": "Cc1cc(C)n(-c2cccc(O)c2O)n1", "Recorded value": "C (16-32 μg/ml)"}
{"Line notation": "Cc1cc(C)n(-c2cccc(C)c2O)n1", "Recorded value": "D (>32-64 μg/ml)"}
{"Line notation": "Cc1nn(-c2ccc([N+](=O)[O-])cc2O)c(C)c1C", "Recorded value": "B (4-16 μg/ml)"}
{"Line notation": "Cc1nn(-c2cc(F)ccc2O)c(C)c1C", "Recorded value": "D (>32-64 μg/ml)"}
{"Line notation": "Cc1nn(-c2ccc(C(N)=O)cc2O)c(C)c1Cl", "Recorded value": "D (>32-64 μg/ml)"}
{"Line notation": "COc1ccc(-n2nc(C)cc2C)c(O)c1", "Recorded value": "A (≤2 μg/ml)"}
